system: GST-tagged truncated human mutant G2019S LRRK2 (Homo sapiens, UniProt Q5S007, G2019S)
test_summary: LRRK2 G2019S Km ATP LanthaScreen assay
Format: biochemical
particulars: 134 μM ATP (Km ATP), LRRKtide substrate, mean IC50 values; read-out: LRRK2 pIC50 (converted)
Using IC50 as the sorting value, the categories are low = under 1 nM, intermediate = from 1 nM up to 4 nM, high = 4 nM and over

- molecule: "Cc1c(Nc2ncc3cc(Cl)c(N4CCN(C5(C)COCC5O)CC4)cc3n2)cnn1C1CC1(F)F (single isomer, unassigned) [Ex-6.38]"
  system: "GST-tagged truncated human mutant G2019S LRRK2 (Homo sapiens, UniProt Q5S007, G2019S)"
  class_label: "low"
- molecule: "Cc1c(Nc2ncc3cc(Cl)c(N4CCN(C5COCC5O)CC4)cc3n2)cnn1C1CC1(F)F (single isomer, unassigned) [Ex-6.43]"
  system: "GST-tagged truncated human mutant G2019S LRRK2 (Homo sapiens, UniProt Q5S007, G2019S)"
  class_label: "high"
- molecule: "CC1(N2CCN(c3cc4nc(Nc5cnn(C(F)F)c5)ncc4cc3Cl)CC2)COC1"
  system: "GST-tagged truncated human mutant G2019S LRRK2 (Homo sapiens, UniProt Q5S007, G2019S)"
  class_label: "high"
- molecule: "Cc1c(Nc2ncc3cc(Cl)c(N4CCN(C5COC(C)(C)C5)CC4)cc3n2)cnn1C1CC1 (single isomer, unassigned) [Ex-12.5]"
  system: "GST-tagged truncated human mutant G2019S LRRK2 (Homo sapiens, UniProt Q5S007, G2019S)"
  class_label: "low"
- molecule: "OC[C@H]1CCN(c2cc3nc(Nc4cnn(CC(F)F)c4Cl)ncc3cc2Cl)C1"
  system: "GST-tagged truncated human mutant G2019S LRRK2 (Homo sapiens, UniProt Q5S007, G2019S)"
  class_label: "high"
- molecule: "CC1(N2CCN(c3cc4nc(Nc5cnn(CC6CCC6)c5Cl)ncc4cc3Cl)CC2)COC1"
  system: "GST-tagged truncated human mutant G2019S LRRK2 (Homo sapiens, UniProt Q5S007, G2019S)"
  class_label: "intermediate"
- molecule: "CCn1ncc(Nc2ncc3ccc(N4C(=O)C5CCC4C5)cc3n2)c1C (centres unmarked) [Ex-7.19]"
  system: "GST-tagged truncated human mutant G2019S LRRK2 (Homo sapiens, UniProt Q5S007, G2019S)"
  class_label: "intermediate"
- molecule: "OC1COCC1N1CCN(c2cc3nc(Nc4cnn(C5CC5(F)F)c4Cl)ncc3cc2Cl)CC1 (single isomer, unassigned) [Ex-6.30]"
  system: "GST-tagged truncated human mutant G2019S LRRK2 (Homo sapiens, UniProt Q5S007, G2019S)"
  class_label: "low"
- molecule: "OC1COCC1N1CCN(c2cc3nc(Nc4cnn(C56CC(F)(C5)C6)c4Cl)ncc3cc2Cl)CC1 (single isomer, unassigned)"
  system: "GST-tagged truncated human mutant G2019S LRRK2 (Homo sapiens, UniProt Q5S007, G2019S)"
  class_label: "low"
- molecule: "O[C@@H]1COC[C@@H]1N1CCN(c2cc3nc(Nc4cnn(C5CC5)c4Cl)ncc3cc2Cl)CC1 (single isomer, unassigned) [Ex-3.51]"
  system: "GST-tagged truncated human mutant G2019S LRRK2 (Homo sapiens, UniProt Q5S007, G2019S)"
  class_label: "high"
- molecule: "Cc1c(Nc2ncc3cc(Cl)c(N4CCN(C5(C)COC5)CC4)cc3n2)cnn1CC(C)(C)O"
  system: "GST-tagged truncated human mutant G2019S LRRK2 (Homo sapiens, UniProt Q5S007, G2019S)"
  class_label: "high"
- molecule: "C[C@@]1(O)COCC12CCN(c1cc3nc(Nc4cnn(C5CC5)c4Cl)ncc3cc1Cl)CC2"
  system: "GST-tagged truncated human mutant G2019S LRRK2 (Homo sapiens, UniProt Q5S007, G2019S)"
  class_label: "intermediate"
- molecule: "Cc1c(Nc2ncc3cc(Cl)c(N4CCN(C5COC(C)(C)C5)CC4)cc3n2)cnn1C1CC1 (single isomer, unassigned) [Ex-12.1]"
  system: "GST-tagged truncated human mutant G2019S LRRK2 (Homo sapiens, UniProt Q5S007, G2019S)"
  class_label: "intermediate"

* * *

Listed compounds paired with reported IC50
system: GST-tagged truncated human mutant G2019S LRRK2 (Homo sapiens, UniProt Q5S007, G2019S)
test_summary: LRRK2 G2019S Km ATP LanthaScreen assay
Assay type: biochemical
particulars: 134 μM ATP (Km ATP), LRRKtide substrate, mean IC50 values; read-out: LRRK2 pIC50 (converted)

- compound: "Cc1nn(C2C[C@@H](C)O[C@@H](C)C2)cc1Nc1ncc2ccc(N3C(=O)OC[C@@H]3C)cc2n1 (stereo partly drawn)"
  IC50 / nM: 33.7
- compound: "Cc1c(Nc2ncc3cc(Cl)c(N4CCN(C5(C)COC5)CC4)cc3n2)cnn1CCF"
  IC50 / nM: 0.625
- compound: "CC1(O)CC2(CN(c3cc4nc(Nc5cnn(C6CC6)c5Cl)ncc4cc3Cl)C2)C1"
  IC50 / nM: 1.05
- compound: "CO[C@H]1CCN(c2cc3nc(Nc4cnn(C5(C)CC5)c4Cl)ncc3cc2Cl)C1"
  IC50 / nM: 15.2
- compound: "Cc1c(Nc2ncc3cc(Cl)c(N4CCC(C)(O)CC4)cc3n2)cnn1C1CC1(F)F (single isomer, unassigned) [Ex-6.10]"
  IC50 / nM: 0.2
- compound: "Cc1c(Nc2ncc3cc(Cl)c(N4CCN(C5CCCC5C#N)CC4)cc3n2)cnn1C1CC1 (single isomer, unassigned) [Ex-1.6]"
  IC50 / nM: 1.89
- compound: "CC(C)Nc1ccc2cnc(Nc3cnn(C4CCN(C5(C)COC5)CC4)c3Cl)nc2c1Cl"
  IC50 / nM: 6.88
- compound: "CC1(N2CCN(c3cc4nc(Nc5cnn(C6(C(F)(F)F)CC6)c5Cl)ncc4cc3Cl)CC2)COC1"
  IC50 / nM: 3.68
- compound: "CC1(N2CCN(c3cc4nc(Nc5cnn(C6CC6(F)F)c5Cl)ncc4cc3Cl)CC2)CCOC1 (single isomer, unassigned)"
  IC50 / nM: 0.2
- compound: "Cc1c(Nc2ncc3cc(Cl)c(N4CCN(C5(C)COCC5O)CC4)cc3n2)cnn1C1CC1 (single isomer, unassigned) [Ex-6.18]"
  IC50 / nM: 0.322
- compound: "CC(C)(O)Cn1cc(Nc2ncc3cc(Cl)c(N4CCC(O)CC4)cc3n2)cn1"
  IC50 / nM: 0.407
- compound: "Cc1cc2cnc(Nc3cnn(C45CC(C4)C5)c3Cl)nc2cc1N1CCN(C2(C)COCC2O)CC1 (single isomer, unassigned) [Ex-13.5]"
  IC50 / nM: 9.89
- compound: "Clc1cc2cnc(Nc3cnn(C4CC4)c3Cl)nc2cc1N1CCc2[nH]ncc2C1"
  IC50 / nM: 1.21
- compound: "Cc1c(Nc2ncc3cc(Cl)c(N4CCN(C5COCC5O)CC4)cc3n2)cnn1C(F)F (single isomer, unassigned) [Ex-13.6]"
  IC50 / nM: 0.668
- compound: "O=C1C2CCC(C2)N1c1ccc2cnc(Nc3ccn(CC(F)(F)F)n3)nc2c1 (stereo not drawn)"
  IC50 / nM: 8.95

* * *

Listed next: entries and their corresponding IC50.
system: GST-tagged truncated human mutant G2019S LRRK2 (Homo sapiens, UniProt Q5S007, G2019S)
test_summary: LRRK2 G2019S Km ATP LanthaScreen assay
Type: biochemical
particulars: 134 μM ATP (Km ATP), LRRKtide substrate, mean IC50 values; read-out: LRRK2 pIC50 (converted)
Experimental: Unless otherwise noted, all reactions are magnetically stirred. Unless otherwise noted, when diethyl ether is used in the experiments described below, it is Fisher ACS certified material and is stabilized with BHT. Unless otherwise noted, “concentrated” and/or “solvent removed under reduced pressure” means evaporating the solvent from a solution or mixture using a rotary evaporator or vacuum pump. […] The IC50 values reported herein were measured as follows. […]

- compound: "Cc1c(Nc2ncc3cc(Cl)c(N4CCN(C5(C)COCC5O)CC4)cc3n2)cnn1C1CC1(F)F (single isomer, unassigned) [Ex-6.42]"
  system: "GST-tagged truncated human mutant G2019S LRRK2 (Homo sapiens, UniProt Q5S007, G2019S)"
  IC50 (nM): 21.4
- compound: "Cc1c(Nc2ncc3cc(Cl)c(N4CCN(C5COCC5O)CC4)cc3n2)cnn1C(C)(C)C#N (single isomer, unassigned) [Ex-6.21]"
  system: "GST-tagged truncated human mutant G2019S LRRK2 (Homo sapiens, UniProt Q5S007, G2019S)"
  IC50 (nM): 0.323
- compound: "Cc1c(Nc2ncc3cc(F)c(NCC4CC4)nc3n2)cnn1C1CCOCC1"
  system: "GST-tagged truncated human mutant G2019S LRRK2 (Homo sapiens, UniProt Q5S007, G2019S)"
  IC50 (nM): 32.6
- compound: "CC1CN(C2CCN(c3cc4nc(Nc5cnn(C6(C)CC6)c5Cl)ncc4cc3Cl)CC2)C1"
  system: "GST-tagged truncated human mutant G2019S LRRK2 (Homo sapiens, UniProt Q5S007, G2019S)"
  IC50 (nM): 3.52
